# System: CYP3A4
# Procedure Text: Human CYP3A4 induction assay (mRNA, cryopreserved human hepatocytes)
# Condition Info: 10 uM test compound, 72 hours, percent of control (rifampin positive control)
Recorded Hu CYP3A4 mRNA Induction (10 uM POC) for the following compounds
Assay Metric: Hu CYP3A4 mRNA Induction (10 uM POC) (%)

* COc1cc([C@H]2C[C@H](C(F)(F)F)C2)ccc1-n1c(=O)ccc2cc(S(=O)(=O)Nc3cccnn3)ccc21 (atropisomer, axis not shown; (P)) [Example 38] | 4.43
* COc1cc(C2CCC2)c(F)cc1-n1c(=O)ccc2cc(S(=O)(=O)Nc3ccon3)ccc21 (atropisomer, axis not shown; (P)) [Example 14] | 18.3
* COc1cc([C@H]2C[C@@](F)(C(F)(F)F)C2)c(Cl)cc1-n1c(=O)ccc2cc(S(=O)(=O)Nc3ccon3)ccc21 (atropisomer, axis not shown; (P)) [Example 11] | 7.29

###

# Test system: CYP3A4
# Procedure Text: Human CYP3A4 induction assay (mRNA, cryopreserved human hepatocytes)
# Condition Info: 10 uM test compound, 72 hours, percent of control (rifampin positive control)
# note: boundary value 60% maps to FALSE; Hu CYP3A4 mRNA Induction (10 uM POC) below it maps to TRUE

• COc1cc(C2CCC2)c(C)cc1-n1c(=O)ccc2cc(S(=O)(=O)Nc3ccon3)ccc21 (atropisomer, axis not shown; (P)) [Example 22] = TRUE
• COc1cc([C@H]2C[C@H](C(F)(F)F)C2)c(F)cc1-n1c(=O)ccc2cc(S(=O)(=O)Nc3ncccn3)ccc21 (atropisomer, axis not shown; (P)) [Example 15] = TRUE
• COc1cc([C@H]2C[C@H](C(F)(F)F)C2)c(F)cc1-n1c(=O)ccc2c(F)c(S(=O)(=O)Nc3ccon3)ccc21 (atropisomer, axis not shown; (P)) [Example 46] = TRUE
• COc1cc(C2CC(F)(F)C2)c(F)cc1-n1c(=O)ccc2cc(S(=O)(=O)Nc3ccon3)ccc21 (atropisomer, axis not shown; (P)) [Example 4] = TRUE
• COc1cc([C@H]2C[C@H](C(F)(F)F)C2)c(Cl)cc1-n1c(=O)ccc2cc(S(=O)(=O)Nc3ccon3)ccc21 (single isomer, unassigned) [Example 12] = FALSE
• COc1cc(C2CC(F)(F)C2)c(F)cc1-n1c(=O)ccc2cc(S(=O)(=O)Nc3ccon3)c(F)cc21 (atropisomer, axis not shown; (P)) [Example 41] = TRUE
• COc1cc(C2CCC2)c(Cl)cc1-n1c(=O)ccc2cc(S(=O)(=O)Nc3ccon3)ccc21 (atropisomer, axis not shown; (P)) [Example 21] = TRUE
• COc1cc(C23CC(C(F)(F)F)(C2)C3)c(F)cc1-n1c(=O)ccc2cc(S(=O)(=O)Nc3ncccn3)ccc21 (atropisomer, axis not shown; (P)) [Example 47] = TRUE
• COc1cc(C2CCC2)c(Cl)cc1-n1c(=O)ccc2cc(S(=O)(=O)Nc3ncco3)ccc21 (atropisomer, axis not shown; (P)) [Example 32] = FALSE
• COc1cc([C@H]2C[C@@H](C(F)(F)F)C2)c(Cl)cc1-n1c(=O)ccc2cc(S(=O)(=O)Nc3ncccn3)ccc21 (atropisomer, axis not shown; (P)) [Example 16] = FALSE
• COc1cc([C@H]2C[C@H](C(F)(F)F)C2)c(Cl)cc1-n1c(=O)ccc2cc(S(=O)(=O)Nc3ccon3)ccc21 (single isomer, unassigned) [Example 13] = TRUE
• COc1cc(C2CC(F)(F)C2)c(Cl)cc1-n1c(=O)ccc2cc(S(=O)(=O)Nc3ccon3)ccc21 (atropisomer, axis not shown; (P)) [Example 48] = FALSE
• COc1cc([C@H]2C[C@H](C(F)(F)F)C2)c(C)cc1-n1c(=O)ccc2cc(S(=O)(=O)Nc3ccon3)ccc21 (atropisomer, axis not shown; (P)) [Example 20] = TRUE
• COc1cc(C2CCC2)c(F)cc1-n1c(=O)ccc2cc(S(=O)(=O)Nc3cccnn3)ccc21 (atropisomer, axis not shown; (P)) [Example 23] = TRUE
• COc1cc([C@H]2C[C@H](OC(F)(F)F)C2)c(F)cc1-n1c(=O)ccc2cc(S(=O)(=O)Nc3ccon3)ccc21 (single isomer, unassigned) [Example 45] = TRUE
• COc1cc([C@H]2C[C@](F)(C(F)(F)F)C2)c(Cl)cc1-n1c(=O)ccc2cc(S(=O)(=O)Nc3ccon3)ccc21 (atropisomer, axis not shown; (P)) [Example 10] = TRUE
• COc1cc([C@H]2C[C@H](C(F)(F)F)C2)c(F)cc1-n1c(=O)ccc2cc(S(=O)(=O)Nc3ccon3)c(F)cc21 (atropisomer, axis not shown; (P)) [Example 40] = FALSE
• COc1cc([C@H]2C[C@H](C(F)(F)F)C2)c(Cl)cc1-n1c(=O)ccc2cc(S(=O)(=O)Nc3ncco3)ccc21 (atropisomer, axis not shown; (P)) [Example 49] = FALSE

###

# Test system: CYP3A4
# Procedure Text: Human CYP3A4 induction assay (mRNA, cryopreserved human hepatocytes)
# Condition Info: 10 uM test compound, 72 hours, percent of control (rifampin positive control)
Doc: threshold 60% (exclusive). Items with Hu CYP3A4 mRNA Induction (10 uM POC) beneath it return Fulfilled; others return Not fulfilled.

* COc1cc(C2CCC2)ccc1-n1c(=O)ccc2cc(S(=O)(=O)Nc3ncccn3)ccc21 (atropisomer, axis not shown; (P)) [Example 26] | Fulfilled
* COc1cc([C@H]2C[C@H](C(F)(F)F)C2)c(F)cc1-n1c(=O)ccc2cc(S(=O)(=O)Nc3ncco3)ccc21 (atropisomer, axis not shown; (P)) [Example 43] | Not fulfilled
* COc1cc(C2CCC2)c(C)cc1-n1c(=O)ccc2cc(S(=O)(=O)Nc3ncccn3)ccc21 (atropisomer, axis not shown; (P)) [Example 27] | Fulfilled
* COc1cc(C23CC(C(F)(F)F)(C2)C3)c(F)cc1-n1c(=O)ccc2cc(S(=O)(=O)Nc3ccon3)ccc21 (atropisomer, axis not shown; (P)) [Example 42] | Fulfilled
* COc1cc([C@H]2C[C@H](C(F)(F)F)C2)c(F)cc1-n1c(=O)ccc2cc(S(=O)(=O)Nc3cccnn3)ccc21 (atropisomer, axis not shown; (P)) [Example 39] | Fulfilled
* COc1cc(C2CCC2)c(C)cc1-n1c(=O)ccc2cc(S(=O)(=O)Nc3ncco3)ccc21 (atropisomer, axis not shown; (P)) [Example 34] | Not fulfilled
* COc1cc([C@H]2C[C@@H](C(F)(F)F)C2)c(F)cc1-n1c(=O)ccc2cc(S(=O)(=O)Nc3ccon3)ccc21 (single isomer, unassigned) [Example 6] | Not fulfilled
* COc1cc([C@H]2C[C@H](C(F)(F)F)C2)c(Cl)cc1-n1c(=O)ccc2cc(S(=O)(=O)Nc3ncccn3)ccc21 (atropisomer, axis not shown; (P)) [Example 17] | Not fulfilled
* COc1cc(C2CCC2)ccc1-n1c(=O)ccc2cc(S(=O)(=O)Nc3ncco3)ccc21 (atropisomer, axis not shown; (P)) [Example 29] | Fulfilled
* COc1cc([C@H]2C[C@H](C(F)(F)F)C2)ccc1-n1c(=O)ccc2cc(S(=O)(=O)Nc3ccon3)ccc21 (atropisomer, axis not shown; (P)) [Example 35] | Fulfilled

###

# Tested System: Human Nav1.7 (Homo sapiens (Human))
# Sequence (Q15858 whole entry): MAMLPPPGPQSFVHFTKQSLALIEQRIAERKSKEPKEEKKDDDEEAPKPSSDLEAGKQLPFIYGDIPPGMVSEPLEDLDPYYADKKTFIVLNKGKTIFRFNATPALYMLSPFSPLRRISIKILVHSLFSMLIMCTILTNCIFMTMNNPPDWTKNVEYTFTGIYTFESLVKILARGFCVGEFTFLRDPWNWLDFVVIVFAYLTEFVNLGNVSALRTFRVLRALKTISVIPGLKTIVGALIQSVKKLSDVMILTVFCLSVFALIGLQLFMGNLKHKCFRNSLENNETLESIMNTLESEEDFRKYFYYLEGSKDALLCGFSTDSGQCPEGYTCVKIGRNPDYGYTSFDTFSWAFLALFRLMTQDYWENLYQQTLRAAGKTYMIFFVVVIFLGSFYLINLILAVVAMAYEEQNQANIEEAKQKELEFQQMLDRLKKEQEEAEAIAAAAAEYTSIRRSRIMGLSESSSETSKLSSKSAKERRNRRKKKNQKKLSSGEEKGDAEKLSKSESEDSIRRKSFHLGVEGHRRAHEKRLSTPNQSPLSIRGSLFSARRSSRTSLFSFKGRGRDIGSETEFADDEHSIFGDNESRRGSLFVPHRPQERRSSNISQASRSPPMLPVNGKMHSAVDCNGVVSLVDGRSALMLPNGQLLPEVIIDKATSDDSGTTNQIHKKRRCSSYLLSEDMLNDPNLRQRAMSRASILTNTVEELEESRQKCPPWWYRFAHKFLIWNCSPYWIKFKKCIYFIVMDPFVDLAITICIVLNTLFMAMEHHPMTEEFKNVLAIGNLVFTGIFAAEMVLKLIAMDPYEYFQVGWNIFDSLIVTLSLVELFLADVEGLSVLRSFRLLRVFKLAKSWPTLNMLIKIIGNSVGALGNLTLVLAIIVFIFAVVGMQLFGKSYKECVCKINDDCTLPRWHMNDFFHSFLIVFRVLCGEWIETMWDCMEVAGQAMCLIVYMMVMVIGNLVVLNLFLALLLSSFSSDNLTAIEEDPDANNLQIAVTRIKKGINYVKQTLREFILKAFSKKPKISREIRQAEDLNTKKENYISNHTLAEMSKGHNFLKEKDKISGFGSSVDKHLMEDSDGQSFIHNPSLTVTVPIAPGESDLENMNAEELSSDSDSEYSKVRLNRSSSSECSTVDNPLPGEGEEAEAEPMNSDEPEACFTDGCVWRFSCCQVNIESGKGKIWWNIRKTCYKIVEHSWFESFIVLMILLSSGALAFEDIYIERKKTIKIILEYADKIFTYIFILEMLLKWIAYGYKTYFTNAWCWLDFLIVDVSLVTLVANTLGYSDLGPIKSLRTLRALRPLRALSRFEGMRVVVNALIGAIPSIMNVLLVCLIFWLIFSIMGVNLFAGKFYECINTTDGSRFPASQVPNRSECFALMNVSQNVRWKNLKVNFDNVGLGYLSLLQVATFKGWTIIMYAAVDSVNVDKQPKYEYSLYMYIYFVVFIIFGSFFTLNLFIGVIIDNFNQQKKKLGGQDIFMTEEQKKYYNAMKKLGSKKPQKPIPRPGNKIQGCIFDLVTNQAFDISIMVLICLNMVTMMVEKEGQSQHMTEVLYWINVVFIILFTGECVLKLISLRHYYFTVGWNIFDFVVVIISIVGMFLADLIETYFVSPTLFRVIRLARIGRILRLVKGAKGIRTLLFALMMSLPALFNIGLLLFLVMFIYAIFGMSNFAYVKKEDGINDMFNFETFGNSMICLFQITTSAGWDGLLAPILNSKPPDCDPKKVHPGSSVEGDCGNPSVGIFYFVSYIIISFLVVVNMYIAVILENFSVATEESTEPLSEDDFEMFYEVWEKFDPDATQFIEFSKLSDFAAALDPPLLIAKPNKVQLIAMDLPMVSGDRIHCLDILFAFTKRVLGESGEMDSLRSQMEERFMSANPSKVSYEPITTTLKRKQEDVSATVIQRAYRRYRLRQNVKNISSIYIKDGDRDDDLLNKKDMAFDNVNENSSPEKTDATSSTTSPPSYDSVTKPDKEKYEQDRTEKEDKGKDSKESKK
# Procedure Text: IonWorks Barracuda (IWB) automated patch clamp assay
# Condition Info: human Nav1.7 in HEK cells, population patch-clamp, state- and use-dependent voltage protocol; read-out: hNaV1.7 IWB-U IC50
pIC50: −log10 of the molar value.
Catalogue of compounds with associated pIC50
Assay Metric: pIC50

* COc1cc(C2CC(C(C)(C)C)C2)c(F)cc1-n1c(=O)ccc2cc(S(=O)(=O)Nc3ccon3)ccc21 (racemic) | 7.60
* COc1cc(C2CC(OC(F)(F)F)C2)c(F)cc1-n1c(=O)ccc2cc(S(=O)(=O)Nc3ccon3)ccc21 (single isomer, unassigned) | 8.15
* COc1cc([C@H]2C[C@H](C(F)(F)F)C2)c(F)cc1-n1c(=O)ccc2cc(S(=O)(=O)Nc3ccon3)ccc21 (single isomer, unassigned) | 8.15
* COc1cc([C@H]2C[C@H](C(F)(F)F)C2)c(Cl)cc1-n1c(=O)ccc2cc(S(=O)(=O)Nc3ccon3)ccc21 (single isomer, unassigned) | 8.22
* COc1cc(C2CC(C(F)(F)F)C2)c(Cl)cc1-n1c(=O)ccc2cc(S(=O)(=O)Nc3ccon3)ccc21 (atropisomer, axis not shown; (P)) | 8.15
* COc1cc(C2CC(C(F)(F)F)C2)c(F)cc1-n1c(=O)ccc2cc(S(=O)(=O)Nc3ccon3)ccc21 (atropisomer, axis not shown; (P)) | 7.96
* COc1cc([C@H]2C[C@H](C(F)(F)F)C2)c(C)cc1-n1c(=O)ccc2cc(S(=O)(=O)Nc3ncccn3)ccc21 (atropisomer, axis not shown; (P)) | 7.21
